- experimental-system: NbUGT72AY1 (Nicotiana benthamiana)
- Sequence (A0A8K1ZRH3 1-477): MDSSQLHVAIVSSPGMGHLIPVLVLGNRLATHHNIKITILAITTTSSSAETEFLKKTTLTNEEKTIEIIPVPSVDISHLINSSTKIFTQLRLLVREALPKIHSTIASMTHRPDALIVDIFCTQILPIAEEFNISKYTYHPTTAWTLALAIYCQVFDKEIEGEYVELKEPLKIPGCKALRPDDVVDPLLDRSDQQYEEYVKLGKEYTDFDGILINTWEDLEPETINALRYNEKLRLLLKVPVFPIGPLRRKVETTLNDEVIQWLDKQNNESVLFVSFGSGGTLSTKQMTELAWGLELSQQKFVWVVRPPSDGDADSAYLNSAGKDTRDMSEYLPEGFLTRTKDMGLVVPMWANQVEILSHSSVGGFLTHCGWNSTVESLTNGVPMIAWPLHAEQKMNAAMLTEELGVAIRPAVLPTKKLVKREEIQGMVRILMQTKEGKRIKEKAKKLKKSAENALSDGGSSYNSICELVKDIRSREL
- procedure-details: UDP-Glo glycosyltransferase assay, acceptor substrate kinetics
- Format: biochemical
- reported-conditions: substrate inhibition (Ki), as stated in the abstract
readout-name: Ki (µM)
Numbers only, in µM.

COc1cc2ccc(=O)oc2cc1O [scopoletin] yielded Ki of 4

----------
- experimental-system: NbUGT72AY1-R91F (Nicotiana benthamiana, UniProt A0A8K1ZRH3, R91F)
- Sequence (A0A8K1ZRH3 1-477 R91F): as the sequence (A0A8K1ZRH3 1-477) above, with R91F counted along it
- procedure-details: UDP-Glo glycosyltransferase assay, kinetics of mutant
readout-name: pKi
Numbers only, as −log10 of the molar value.

Data point: COc1cc2ccc(=O)oc2cc1O [scopoletin] ; pKi = 6.05

----------
- experimental-system: NbUGT72AY1 (Nicotiana benthamiana)
- procedure-details: UDP-Glo glycosyltransferase assay, acceptor substrate kinetics
- Format: biochemical
- reported-conditions: Ki, Fig S14b series; wild type R91; substrate scopoletin
readout-name: pKi
One number for each entry, as −log10 of the molar value.

Looking up COc1cc2ccc(=O)oc2cc1O [scopoletin] , I found its pKi recorded as 4.97

----------
- experimental-system: NbUGT72AY1-R91M (Nicotiana benthamiana, UniProt A0A8K1ZRH3, R91M)
- procedure-details: UDP-Glo glycosyltransferase assay, kinetics of mutant
readout-name: pKi
Give bare numbers, as −log10 of the molar value.

Result for COc1cc2ccc(=O)oc2cc1O [scopoletin] , tested on NbUGT72AY1-R91M (Nicotiana benthamiana, UniProt A0A8K1ZRH3, R91M), pKi: 4.56
